I'd be grateful if you could share measured INHIBITION for these entries.
- System: Plasmodium berghei
- assay.method.text: Screen against P. berghei liver stage (PbLuc), transformed with Luciferase, at 10uM
- Format: functional, HepG2
- condition.notes: tested at 10 uM
Among all 69,000 compounds or so, about 8,600 (12%) showed an effect of 50% or more. Only a selection was taken, and strong results are over-represented in it overall.
Numbers only, in %.

Reference set (3 entries):
molecule	reported
COc1ccccc1OC1(C(=O)O)CCN(c2ccccn2)CC1	40.5
Cc1cc(C)cc(OCn2ccc(C(=O)O)n2)c1	39.1
OCC1COCCN(Cc2cc(C3CCCCC3)no2)C1 (centres undefined)	41

In the following, a different molecule is considered.
Report INHIBITION, nothing else, for this molecule: `Cc1cccc(CN2C[C@@H]3OCCN(CC(=O)N(C)C)[C@@H]3C2)c1`
39.4
